Molecular target: Lysosomal alpha-glucosidase (Homo sapiens) (UniProt P10253)
Experiment: Inhibition of alpha-glucosidase (unknown origin) using para-nitrophenyl-alpha-D-glucopyranoside as substrate incubated at 50 to 300 ug/ml for 15 min prior to substrate addition measured after 15 min by spectrophotometric analysis
endpointLabel: inhibition (%)
Form entry: value (%) — number only.

The reported inhibition of the molecule C[C@H]1[C@H](C)CC[C@]2(C(=O)O)CC[C@]3(C)C(=CC[C@@H]4[C@@]5(C)CC[C@H](O)C(C)(C)[C@@H]5CC[C@]43C)[C@H]12 was 97.6

The reported inhibition of the molecule CC[C@H](/C=C/[C@@H](C)[C@H]1CC[C@H]2[C@@H]3CC=C4CC(OC(C)=O)CC[C@]4(C)[C@H]3CC[C@]12C)C(C)C (stereo not given in full) was 99.1

The reported inhibition of the molecule O=c1cc(-c2ccc(O)cc2)oc2cc(O)c([C@@H]3O[C@H](CO)[C@@H](O)[C@H](O)[C@H]3O)c(O)c12 was 76.8

The reported inhibition of the molecule C[C@H]1O[C@H](O[C@H]2[C@H](O)[C@@H](O)[C@@H](O[C@H]3[C@H](O)[C@@H](O)C(O)O[C@@H]3CO)O[C@@H]2CO)[C@H](O)[C@@H](O)[C@@H]1N[C@H]1C=C(CO)[C@@H](O)[C@H](O)[C@H]1O (stereo not given in full) was 55.6

The reported inhibition of the molecule O=c1cc(-c2ccc(O)c(O)c2)oc2cc(O)cc(O)c12 was 99.9
